- Tested on: HEK293
- assay_details: cells
- study_conditions: Homo sapiens
measured_property: pEC50
# pEC50 is unitless: minus log10 of the molar concentration; print number only

| compound_string | tested_system | pEC50 |
| --- | --- | --- |
| O=C(O)c1cnn(-c2ccc(COCc3cccc(C(F)(F)F)c3)cn2)c1 | HEK293 | 4.96 |
| COc1ccc(COCc2ccc(-n3cc(C(=O)O)cn3)nc2)cc1 | HEK293 | 6.00 |

Tested on HEK293: `O=C(O)c1cnn(-c2ccc(COCc3ccccc3)cn2)c1` . Observed pEC50: 4.60

Tested on HEK293: `O=C(O)c1cnn(-c2ccc(COCc3ccc(Cl)cc3)cn2)c1` . Observed pEC50: 5.13

Tested on HEK293: `O=C(O)c1cnn(-c2ccc(COCc3cccc(Cl)c3)cn2)c1` . Observed pEC50: 5.42

Recorded values, source ChEMBL document CHEMBL1138874.
